src = patent US20040106545A1

- System Tested: T1, chick N-cadherin expressed on transfected 3T3 cells (chick, UniProt P10288 165-912)
- T1 sequence (looked up): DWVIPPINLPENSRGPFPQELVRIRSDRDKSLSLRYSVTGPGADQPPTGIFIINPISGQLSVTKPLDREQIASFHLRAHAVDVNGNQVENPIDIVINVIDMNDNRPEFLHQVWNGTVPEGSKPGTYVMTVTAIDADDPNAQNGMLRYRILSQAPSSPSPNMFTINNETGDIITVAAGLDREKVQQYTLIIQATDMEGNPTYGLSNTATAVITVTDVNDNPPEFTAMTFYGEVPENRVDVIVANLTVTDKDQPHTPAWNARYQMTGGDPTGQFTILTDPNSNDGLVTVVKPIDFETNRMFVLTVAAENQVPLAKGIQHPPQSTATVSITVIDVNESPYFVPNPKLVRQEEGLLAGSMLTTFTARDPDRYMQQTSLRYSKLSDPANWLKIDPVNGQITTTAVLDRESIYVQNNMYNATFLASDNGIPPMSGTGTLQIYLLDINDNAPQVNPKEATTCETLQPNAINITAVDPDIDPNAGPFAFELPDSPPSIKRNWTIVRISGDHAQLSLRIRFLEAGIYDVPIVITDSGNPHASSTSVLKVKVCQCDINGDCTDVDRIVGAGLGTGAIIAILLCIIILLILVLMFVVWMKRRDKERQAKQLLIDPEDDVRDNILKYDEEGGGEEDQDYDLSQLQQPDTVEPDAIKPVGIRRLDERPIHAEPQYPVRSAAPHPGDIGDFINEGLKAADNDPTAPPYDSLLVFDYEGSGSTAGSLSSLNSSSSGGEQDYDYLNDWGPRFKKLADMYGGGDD
- Assay Notes: cell-based or functional assay
Positions of bridges follow the written chain, without caps; N, C: chain ends.
Property Measured: % Inhibition of N-Cadherin Response (peptide 125 µg/ml) (%)

For record Ac-CHAVDINC-NH2 (disulfide 1-8 (inferred)) [N-Ac-CHAVDINC-NH2] the listed % Inhibition of N-Cadherin Response (peptide 125 µg/ml) is 62

For record Ac-CHAVDC-NH2 (disulfide 1-6 (inferred)) [N-Ac-CHAVDC-NH2] the listed % Inhibition of N-Cadherin Response (peptide 125 µg/ml) is 77.1

1 = Ac-CHAVC-NH2 (disulfide 1-5 (inferred)) [N-Ac-CHAVC-NH2]
2 = Ac-CHAVDIC-NH2 (disulfide 1-7 (inferred)) [N-Ac-CHAVDIC-NH2]
In the pair 1 and 2 , the larger recorded % Inhibition of N-Cadherin Response (peptide 125 µg/ml) belongs to which? Your choice should be expressed through its label.
2
